- testDescription: Acute toxicity, intravenous administration to male BDF mice
- Assay type: in vivo, mouse
- testParameters: 3 mice per group

{"compound": "O=C1C=CC[C@@H](C(=O)O)N1", "Survival dose (doses causing no death)": "1000 mg/kg"}
{"compound": "N=C1C=CCC(C(=O)O)N1 (stereo not shown)", "Survival dose (doses causing no death)": "600 mg/kg"}
{"compound": "O=C(O)[C@@H]1CC=CC(=S)N1", "Survival dose (doses causing no death)": "800 mg/kg"}
{"compound": "N=C1C=CC[C@@H](C(=O)O)N1", "Survival dose (doses causing no death)": "300 mg/kg"}
